Experiment: Anti HIV-1 activity measured in terms of cytotoxicity against NP-2/CD4/CCR5 cells infected with HIV-1(GUN1WT)
Assay type: functional, cell-based, Homo sapiens
Settings: Homo sapiens, CCR5
Where a SMILES comes first, the peptide text is derived from it. [ ]: non-standard residue; d: D form. The star is where a group is joined. sY = N[C@@H](Cc1ccc(OS(=O)(=O)O)cc1)C(=O)O; X1 = O=S(=O)(O)O*

compound	IC50
CCN(CC)CC.CCN(CC)CC.CCN(CC)CC.CCN(CC)CC.CCN(CC)CC.CCN(CC)CC.CCN(CC)CC.CCN(CC)CC.COC(=O)C(=O)N1CCC[C@H]1C(=O)N[C@H](Cc1ccccc1)C(=O)Nc1ccccc1OCC(=O)N[C@@H](Cc1ccc(OS(=O)(=O)O)cc1)C(=O)N[C@@H](COS(=O)(=O)O)C(=O)N[C@@H](Cc1ccc(OS(=O)(=O)O)cc1)C(=O)N[C@@H](CC(=O)OS(=O)(=O)O)C(=O)N[C@@H](CC(C)C)C(=O)N[C@@H](CC(=O)OS(=O)(=O)O)C(=O)N[C@@H](Cc1ccc(OS(=O)(=O)O)cc1)C(=O)N[C@@H](Cc1ccc(OS(=O)(=O)O)cc1)C(=O)O	42 µM
CC(C)C[C@H](NC(=O)[C@H](CC(=O)O)NC(=O)[C@H](Cc1ccc(O)cc1)NC(=O)[C@H](CO)NC(=O)[C@@H](N)Cc1ccc(O)cc1)C(=O)N[C@@H](CC(=O)O)C(=O)N[C@@H](Cc1ccc(O)cc1)C(=O)N[C@@H](Cc1ccc(O)cc1)C(=O)O (H-YSYDLDYY-OH)	> 1000 µM
CC(C)C[C@H](NC(=O)[C@H](CC(=O)O)NC(=O)[C@@H](N)Cc1ccc(O)cc1)C(=O)N[C@@H](CC(=O)O)C(=O)N[C@@H](Cc1ccc(O)cc1)C(=O)N[C@@H](Cc1ccc(O)cc1)C(=O)O (H-YDLDYY-OH)	66 µM
CC(C)C[C@H](NC(=O)[C@H](CC(=O)OS(=O)(=O)O)NC(=O)[C@@H](N)Cc1ccc(OS(=O)(=O)O)cc1)C(=O)N[C@@H](CC(=O)OS(=O)(=O)O)C(=O)N[C@@H](Cc1ccc(OS(=O)(=O)O)cc1)C(=O)N[C@@H](Cc1ccc(OS(=O)(=O)O)cc1)C(=O)O.CCN(CC)CC.CCN(CC)CC.CCN(CC)CC.CCN(CC)CC.CCN(CC)CC (H-[sY]D(X1)LD(X1)[sY][sY]-OH)	55 µM

###

Below, each of the compounds is paired with its reported Activity value.
Test system: C8166
Experiment: Anti HIV-1 activity was evaluated through C8166/GUN1WT syncytium formation assay at a concentration of 50 ug/mL
Format: functional, Homo sapiens
Where a SMILES comes first, the peptide text is derived from it.

compound	assayed system	Activity
CC(C)C[C@H](NC(=O)[C@H](CC(=O)OS(=O)(=O)[O-])NC(=O)[C@H](Cc1ccc(OS(=O)(=O)[O-])cc1)NC(=O)[C@H](COS(=O)(=O)[O-])NC(=O)[C@@H](N)Cc1ccc(OS(=O)(=O)[O-])cc1)C(=O)N[C@@H](CC(=O)OS(=O)(=O)[O-])C(=O)N[C@@H](Cc1ccc(OS(=O)(=O)[O-])cc1)C(=O)N[C@@H](Cc1ccc(OS(=O)(=O)[O-])cc1)C(=O)O.[Na+].[Na+].[Na+].[Na+].[Na+].[Na+].[Na+]	C8166	235
CC(C)C[C@H](NC(=O)[C@H](CC(=O)O)NC(=O)[C@@H](N)Cc1ccc(O)cc1)C(=O)N[C@@H](CC(=O)O)C(=O)N[C@@H](Cc1ccc(O)cc1)C(=O)N[C@@H](Cc1ccc(O)cc1)C(=O)O (H-YDLDYY-OH)	C8166	188
CC(C)C[C@H](NC(=O)[C@H](CC(=O)OS(=O)(=O)O)NC(=O)[C@H](Cc1ccc(OS(=O)(=O)O)cc1)NC(=O)[C@H](COS(=O)(=O)O)NC(=O)[C@@H](N)Cc1ccc(OS(=O)(=O)O)cc1)C(=O)N[C@@H](CC(=O)OS(=O)(=O)O)C(=O)N[C@@H](Cc1ccc(OS(=O)(=O)O)cc1)C(=O)N[C@@H](Cc1ccc(OS(=O)(=O)O)cc1)C(=O)O.CCN(CC)CC.CCN(CC)CC.CCN(CC)CC.CCN(CC)CC.CCN(CC)CC.CCN(CC)CC.CCN(CC)CC	C8166	258
